Target: Sodium-dependent serotonin transporter (Rattus norvegicus) (UniProt P31652)
Sequence (P31652 whole entry): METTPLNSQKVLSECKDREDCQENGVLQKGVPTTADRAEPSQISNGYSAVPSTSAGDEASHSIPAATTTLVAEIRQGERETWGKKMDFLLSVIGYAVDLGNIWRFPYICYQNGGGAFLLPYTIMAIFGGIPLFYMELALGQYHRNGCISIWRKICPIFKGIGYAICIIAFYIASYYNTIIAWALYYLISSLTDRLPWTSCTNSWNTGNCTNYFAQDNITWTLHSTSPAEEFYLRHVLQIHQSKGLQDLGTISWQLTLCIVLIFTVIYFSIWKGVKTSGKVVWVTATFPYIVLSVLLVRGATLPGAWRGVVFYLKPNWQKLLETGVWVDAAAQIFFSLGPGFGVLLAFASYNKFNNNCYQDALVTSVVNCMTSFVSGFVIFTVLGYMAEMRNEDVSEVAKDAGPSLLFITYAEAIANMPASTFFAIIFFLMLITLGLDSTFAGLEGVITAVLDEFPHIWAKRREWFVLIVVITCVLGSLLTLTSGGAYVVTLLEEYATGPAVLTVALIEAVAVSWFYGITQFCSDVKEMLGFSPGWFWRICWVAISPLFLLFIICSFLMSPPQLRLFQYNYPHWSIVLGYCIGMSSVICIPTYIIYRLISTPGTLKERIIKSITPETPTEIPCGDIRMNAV
Test: Percent inhibition at 10 uM for displacement of [3H]- citalopram binding at the serotonin transporter (5HTT).
Readout Kind: I (%)
# value in %; strip the unit string

Query :: What does the record list as I for CN1[C@@H]2CC[C@H]1C[C@@H](OC(c1ccccc1)c1cccc(F)c1)C2 (some centres undefined) ?
Result :: 42.2

Query :: What does the record list as I for CN1C2CCC1CC(OC(c1ccccc1)c1ccc(Cl)cc1)C2 (centres undefined) ?
Result :: 34

Query :: What does the record list as I for CN1[C@@H]2CC[C@H]1C[C@@H](OC(c1cccc(F)c1)c1cccc(F)c1)C2 ?
Result :: 72.6

Query :: What does the record list as I for CN1[C@@H]2CC[C@H]1C[C@@H](OC(c1ccccc1)c1ccccc1Cl)C2 (some centres undefined) ?
Result :: 55.4

Query :: What does the record list as I for CN1[C@@H]2CC[C@H]1C[C@@H](OC(c1ccccc1)c1cccc(C(F)(F)F)c1)C2 (some centres undefined) ?
Result :: 59.8

Query :: What does the record list as I for CN1[C@@H]2CC[C@H]1C[C@@H](OC(c1ccccc1)c1ccccc1F)C2 (some centres undefined) ?
Result :: 22.3

Query :: What does the record list as I for CN1[C@@H]2CC[C@H]1C[C@@H](OC(c1ccccc1)c1cccc(Cl)c1)C2 (some centres undefined) ?
Result :: 24.5

Query :: What does the record list as I for Cc1ccccc1C(O[C@H]1C[C@H]2CC[C@@H](C1)N2C)c1ccccc1 (some centres undefined) ?
Result :: 35.7

Query :: What does the record list as I for CN1[C@@H]2CC[C@H]1C[C@@H](OC(c1ccccc1)c1ccccc1N)C2 (some centres undefined) ?
Result :: 16

* * *

The molecules below have reported pKi for Muscarinic acetylcholine receptor M1 (Rattus norvegicus).
On this scale, pKi is minus log10 of a concentration expressed in M (mol/L).

Query :: What does the record list as pKi for CN1[C@@H]2CC[C@H]1C[C@@H](OC(c1ccccc1)c1cccc(Cl)c1)C2 (some centres undefined) ?
Result :: 9.01

Query :: What does the record list as pKi for Cc1ccccc1C(O[C@H]1C[C@H]2CC[C@@H](C1)N2C)c1ccccc1 (some centres undefined) ?
Result :: 9.30

Query :: What does the record list as pKi for CN1[C@@H]2CC[C@H]1C[C@@H](OC(c1cccc(F)c1)c1cccc(F)c1)C2 ?
Result :: 9.07

Query :: What does the record list as pKi for CN1[C@@H]2CC[C@H]1C[C@@H](OC(c1ccccc1)c1cccc(F)c1)C2 (some centres undefined) ?
Result :: 9.22

Query :: What does the record list as pKi for CN1[C@@H]2CC[C@H]1C[C@@H](OC(c1ccccc1)c1cccc(C(F)(F)F)c1)C2 (some centres undefined) ?
Result :: 8.60

Query :: What does the record list as pKi for CN1[C@@H]2CC[C@H]1C[C@@H](OC(c1ccccc1)c1ccccc1F)C2 (some centres undefined) ?
Result :: 9.37

Query :: What does the record list as pKi for CN1[C@@H]2CC[C@H]1C[C@@H](OC(c1ccccc1)c1ccccc1N)C2 (some centres undefined) ?
Result :: 8.95

Query :: What does the record list as pKi for CN1C2CCC1CC(OC(c1ccccc1)c1ccc(Cl)cc1)C2 (centres undefined) ?
Result :: 8.83

Query :: What does the record list as pKi for CN1[C@@H]2CC[C@H]1C[C@@H](OC(c1ccccc1)c1ccccc1Cl)C2 (some centres undefined) ?
Result :: 9.39
